Known rat NHE-3 Average pIC50 of a selection of compounds
# target or test system: rat NHE-3 (Rattus norvegicus)
# Construct: expressed in transfected cells; host or cells: Opossum kidney (OK) cells (ATCC), electroporated
# Sequence (P26433 29-831): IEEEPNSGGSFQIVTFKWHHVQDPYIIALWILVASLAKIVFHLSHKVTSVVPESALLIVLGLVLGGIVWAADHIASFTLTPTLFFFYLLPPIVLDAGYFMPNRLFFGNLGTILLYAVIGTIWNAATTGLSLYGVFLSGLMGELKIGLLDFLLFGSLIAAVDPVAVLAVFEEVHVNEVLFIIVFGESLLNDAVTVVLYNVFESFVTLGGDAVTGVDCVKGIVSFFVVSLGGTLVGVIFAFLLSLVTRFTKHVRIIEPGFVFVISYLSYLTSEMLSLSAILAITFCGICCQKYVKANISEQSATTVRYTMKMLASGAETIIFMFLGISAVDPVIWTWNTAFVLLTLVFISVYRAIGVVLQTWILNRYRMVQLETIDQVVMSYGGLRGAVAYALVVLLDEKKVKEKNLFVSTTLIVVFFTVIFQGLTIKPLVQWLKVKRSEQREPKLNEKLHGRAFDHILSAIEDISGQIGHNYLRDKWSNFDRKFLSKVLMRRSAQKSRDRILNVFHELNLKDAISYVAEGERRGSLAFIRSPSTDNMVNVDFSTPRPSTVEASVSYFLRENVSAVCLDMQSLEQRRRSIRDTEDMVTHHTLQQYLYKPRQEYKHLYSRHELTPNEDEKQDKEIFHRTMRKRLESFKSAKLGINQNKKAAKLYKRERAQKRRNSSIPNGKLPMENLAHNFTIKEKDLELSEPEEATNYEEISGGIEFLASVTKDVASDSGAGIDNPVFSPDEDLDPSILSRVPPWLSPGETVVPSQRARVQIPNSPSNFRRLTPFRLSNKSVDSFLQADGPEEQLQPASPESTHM
# assay protocol: Cell-based assay of NHE-3 activity (Pharmacological Test Example 1)
# settings: OK cells expressing rat NHE-3; 0-30 uM test compound, 5 uM EIPA
parameter measured: rat NHE-3 Average pIC50

[
  {
    "compound": "CN1Cc2c(Cl)cc(Cl)cc2C(c2ccc(S(=O)(=O)NCCOCCOCCOCCNC(=O)CCOCCOCCOCCOCCOCCOCCOCCOCCOCCC(=O)NCCOCCOCCOCCNS(=O)(=O)c3ccc(C4CN(C)Cc5c(Cl)cc(Cl)cc54)cc3)cc2)C1 (stereo not drawn) [Example 98]",
    "measured value": ">7"
  },
  {
    "compound": "NC(N)=Nc1nc(-c2cccc(N3CCN(CCO)CC3)c2)c2cc(Cl)ccc2n1 [Example 68]",
    "measured value": "6 to 7"
  },
  {
    "compound": "CN1Cc2c(Cl)cc(Cl)cc2C(c2cccc(S(=O)(=O)NCCOCCOCCOCCNC(=O)NCCOCCOCCOCCNS(=O)(=O)c3cccc(C4CN(C)Cc5c(Cl)cc(Cl)cc54)c3)c2)C1 (stereo not drawn) [Example 100]",
    "measured value": "6 to 7"
  }
]
